Molecular target: cynomolgus Siglec-2/CD22 (Macaca fascicularis, UniProt A0A2K5WCZ6)
Sequence (A0A2K5WCZ6 entry or part of it): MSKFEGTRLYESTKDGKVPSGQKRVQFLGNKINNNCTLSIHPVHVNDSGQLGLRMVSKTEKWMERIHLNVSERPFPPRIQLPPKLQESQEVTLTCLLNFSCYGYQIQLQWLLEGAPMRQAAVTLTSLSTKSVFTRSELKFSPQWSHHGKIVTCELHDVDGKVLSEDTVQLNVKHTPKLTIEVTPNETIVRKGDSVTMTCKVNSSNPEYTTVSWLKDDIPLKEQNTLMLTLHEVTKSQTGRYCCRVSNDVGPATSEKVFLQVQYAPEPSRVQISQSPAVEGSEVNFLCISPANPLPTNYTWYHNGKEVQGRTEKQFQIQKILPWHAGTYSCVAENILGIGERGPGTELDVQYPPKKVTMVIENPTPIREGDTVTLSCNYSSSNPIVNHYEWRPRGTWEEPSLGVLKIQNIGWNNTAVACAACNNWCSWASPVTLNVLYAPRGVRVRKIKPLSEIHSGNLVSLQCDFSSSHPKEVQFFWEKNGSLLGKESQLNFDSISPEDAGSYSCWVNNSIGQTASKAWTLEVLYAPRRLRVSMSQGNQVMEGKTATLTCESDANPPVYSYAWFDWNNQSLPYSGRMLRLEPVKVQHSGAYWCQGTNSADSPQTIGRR
Assay: biochemical
Settings: SPR, steady-state analysis; read-out: Affinity cyno CD22
Method: Prior to immobilization, CD22 proteins were treated with SialoExo (Genovis, Cat #G1-SM1-020) for 4 hours at 37° C. to remove native sialic acid residues. […] Binding experiments of Siglec-ligand conjugated proteins or Siglec ligand compounds were performed on the surfaces prepared above in 10 mM HEPES, 150 mM NaCl, 0.05% Tween-20, pH 7.5, 1% DMSO as the running buffer. […] Data was analyzed using steady-state analysis in Biacore Insight Evaluation Software, version 3.0 for Siglec ligand compounds.
Parameter: Kd. Scope: all listed entries.

| Chemical Smiles | Target | Kd |
| --- | --- | --- |
| C#CCCCCCCO[C@]1(C(=O)O)C[C@H](O)[C@@H](NC(=O)CO)[C@H]([C@H](O)[C@H](O)CNC(=O)c2ccc(Cl)cc2)O1 | cynomolgus Siglec-2/CD22 (Macaca fascicularis, UniProt A0A2K5WCZ6) | < 1000 nM |
| C#CCOCCCCCCO[C@]1(C(=O)O)C[C@H](O)[C@@H](NC(=O)NCC2CC2)[C@H]([C@H](O)[C@H](O)CNC(=O)Cc2ccc(Cl)cc2)O1 | cynomolgus Siglec-2/CD22 (Macaca fascicularis, UniProt A0A2K5WCZ6) | 1000 to 10000 nM |
| C#CCCOc1ccc(CO[C@]2(C(=O)O)C[C@H](O)[C@@H](NC(=O)CO)[C@H]([C@H](O)[C@H](O)CNC(=O)Cc3cccc(Cl)c3)O2)cc1 | cynomolgus Siglec-2/CD22 (Macaca fascicularis, UniProt A0A2K5WCZ6) | < 1000 nM |
| C#CCOCCCCCCO[C@]1(C(=O)O)C[C@H](O)[C@@H](NC(=O)CO)[C@H]([C@H](O)[C@H](O)CNC(=O)Cc2ccc(-c3ccc(O)cc3)cc2)O1 | cynomolgus Siglec-2/CD22 (Macaca fascicularis, UniProt A0A2K5WCZ6) | < 1000 nM |
| C#CCOCCOCCO[C@]1(C(=O)O)C[C@H](O)[C@@H](NC(=O)CO)[C@H]([C@H](O)[C@H](O)CNC(=O)Cc2cc(O)cc(Cl)c2)O1 | cynomolgus Siglec-2/CD22 (Macaca fascicularis, UniProt A0A2K5WCZ6) | < 1000 nM |

Alright, here's another compound for you.
# value lookup — system cynomolgus Siglec-2/CD22 (Macaca fascicularis, UniProt A0A2K5WCZ6), readout Kd, item C#CCOCCCCCCO[C@]1(C(=O)O)C[C@H](O)[C@@H](NC(=O)CO)[C@H]([C@H](O)[C@H](O)CNC(=O)Cc2cccc(O)c2)O1 < 1000 nM

---

Parameter: pKd. Scope: all listed entries.
Biological target: human Siglec-2/CD22 protein (Homo sapiens, UniProt P20273)
Sequence (P20273 20-847): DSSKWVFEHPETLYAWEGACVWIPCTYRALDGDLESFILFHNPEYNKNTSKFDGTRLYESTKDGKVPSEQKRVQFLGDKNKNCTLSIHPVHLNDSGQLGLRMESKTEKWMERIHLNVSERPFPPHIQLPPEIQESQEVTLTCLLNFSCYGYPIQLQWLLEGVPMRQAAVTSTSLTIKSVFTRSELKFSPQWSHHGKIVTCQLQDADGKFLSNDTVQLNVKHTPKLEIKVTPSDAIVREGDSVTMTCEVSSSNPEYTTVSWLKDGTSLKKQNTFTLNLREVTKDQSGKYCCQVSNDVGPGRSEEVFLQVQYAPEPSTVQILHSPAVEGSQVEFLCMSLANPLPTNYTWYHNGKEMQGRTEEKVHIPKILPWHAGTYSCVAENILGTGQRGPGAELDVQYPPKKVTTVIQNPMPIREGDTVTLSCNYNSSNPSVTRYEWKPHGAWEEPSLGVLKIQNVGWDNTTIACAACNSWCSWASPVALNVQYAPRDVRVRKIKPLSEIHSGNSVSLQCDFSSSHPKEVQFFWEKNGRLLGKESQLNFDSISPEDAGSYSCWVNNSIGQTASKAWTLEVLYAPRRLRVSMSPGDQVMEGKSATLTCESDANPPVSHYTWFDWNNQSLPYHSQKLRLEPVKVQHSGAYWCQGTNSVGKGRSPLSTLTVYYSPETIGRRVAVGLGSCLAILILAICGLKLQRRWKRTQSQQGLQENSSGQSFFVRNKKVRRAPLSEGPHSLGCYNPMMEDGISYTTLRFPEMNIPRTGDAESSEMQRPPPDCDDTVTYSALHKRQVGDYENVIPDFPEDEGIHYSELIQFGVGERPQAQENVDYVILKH
Test: SPR binding affinity to human CD22
Details: steady-state analysis
pKd: −log10 of the molar value.

Examples from the recorded data:
| Chemical Smiles | Quantity | Result |
| --- | --- | --- |
| C#CCOCCCCCCO[C@]1(C(=O)O)C[C@H](O)[C@@H](NC(=O)CO)[C@H]([C@H](O)[C@H](O)CNC(=O)Cc2ccc(OC(F)(F)F)cc2)O1 | pKd | > 6.00 |
| CC(=O)NCCOCCOCCOCCOCCNc1c(NCCCCCCO[C@]2(C(=O)O)C[C@H](O)[C@@H](NC(=O)CO)[C@H]([C@H](O)[C@H](O)CNC(=O)Cc3ccc(Cl)cc3)O2)c(=O)c1=O | pKd | > 6.00 |
| C#CCOCCCCCCO[C@]1(C(=O)O)C[C@H](O)[C@@H](NC(=O)CO)[C@H]([C@H](O)[C@H](O)CNC(=O)Cc2ccc(C(F)F)cc2)O1 | pKd | > 6.00 |
| CC(=O)NCCOCCOCCOCCOCCOC(=O)NCCCCCCO[C@]1(C(=O)O)C[C@H](O)[C@@H](NC(C)=O)[C@H]([C@H](O)[C@H](O)CNC(=O)c2cccc(Cl)c2)O1 | pKd | 5.00 to 6.00 |

Item under review: C#CCOCCOCCO[C@]1(C(=O)O)C[C@H](O)[C@@H](NC(=O)CO)[C@H]([C@H](O)[C@H](O)CNC(=O)c2cccc(Oc3ccc(O)cc3)c2)O1 . Reported pKd? > 6.00

Item under review: C#CCOCCCCCCO[C@]1(C(=O)O)C[C@H](O)[C@@H](NC(=O)NCC2CC2)[C@H]([C@H](O)[C@H](O)CNC(=O)Cc2ccc(Cl)cc2)O1 . Reported pKd? 5.00 to 6.00

Item under review: C#CCCOc1ccc(CS[C@]2(C(=O)O)C[C@H](O)[C@@H](NC(=O)CO)[C@H]([C@H](O)[C@H](O)CNC(=O)Cc3ccc(O)cc3)O2)cc1 . Reported pKd? > 6.00

Item under review: C#CCOCCOCCO[C@]1(C(=O)O)C[C@H](O)[C@@H](NC(=O)CO)[C@H]([C@H](O)[C@H](O)CNC(=O)Cc2ccc(-c3cccc(C#N)c3)cc2)O1 . Reported pKd? 5.00 to 6.00
